Reference for the values: patent US20230226064A1

test: Solubility profile of ruxolitinib phosphate in buffer solutions at 37° C.; type: physicochemical; details: aqueous buffer, Buffer solution pH 3.3
quantity kind: solubility

# query: solubility of entry N#CC[C@H](C1CCCC1)n1cc(-c2ncnc3[nH]ccc23)cn1 [ruxolitinib phosphate]
≥ 0.52 mg/mL

###

assay: Solubility profile of ruxolitinib phosphate in buffer solutions at 37° C.; type: physicochemical; conditions: aqueous buffer, Buffer solution pH 4.3
quantity kind: solubility (µg/mL)
Report the value in µg/mL with no unit label.

Param item = N#CC[C@H](C1CCCC1)n1cc(-c2ncnc3[nH]ccc23)cn1 [ruxolitinib phosphate] ; retrieve measured solubility.
350

###

experiment: Solubility profile of ruxolitinib phosphate in buffer solutions at 37° C.; format: physicochemical; conditions: simulated gastric fluid, Buffer solution pH 1.0
quantity kind: solubility

Find the recorded solubility belonging to N#CC[C@H](C1CCCC1)n1cc(-c2ncnc3[nH]ccc23)cn1 [ruxolitinib phosphate] and report it.
≥ 540 µg/mL

###

assay: Solubility profile of ruxolitinib phosphate in buffer solutions at 37° C.; type: physicochemical; settings: aqueous buffer, Buffer solution pH 8.0
quantity kind: solubility (µg/mL)
Write the answer as a number in µg/mL, unit excluded.

# input compound: N#CC[C@H](C1CCCC1)n1cc(-c2ncnc3[nH]ccc23)cn1 [ruxolitinib phosphate] ; wanted: its solubility
170

###

assay: Solubility profile of ruxolitinib phosphate in buffer solutions at 37° C.; type: physicochemical; details: aqueous buffer, Buffer solution pH 7.5
quantity kind: solubility (µg/mL)
Lab book: enter the figure in µg/mL, no units written.

Form field: reported solubility of N#CC[C@H](C1CCCC1)n1cc(-c2ncnc3[nH]ccc23)cn1 [ruxolitinib phosphate]
150
